target: PKG1β (h) (Homo sapiens); construct: purchased Eurofins Pharma Discovery Services UK Ltd (contract assay service); assay: PKG1β kinase activity assay, cell free; assay type: biochemical; details: cell free, 10 μM cGMP, 40 minutes at room temperature; read-out: PKG1β IC50
# maps each entry to its pIC50
pIC50 is a log-scale quantity: -log10 of the concentration expressed in molar.

Some compounds with recorded pIC50:
# compound, result.value
records = [
    ("N=C(N)NCCC[C@H](NC(=O)[C@H](CCCNC(=N)N)NC(=O)[C@H](CCCNC(=N)N)NC(=O)[C@H](CCCNC(=N)N)NC(=O)[C@H](CCCNC(=N)N)NC(=O)[C@H](CCCNC(=N)N)NC(=O)[C@H](CCCNC(=N)N)NC(=O)[C@H](CCCNC(=N)N)NC(=O)[C@@H](N)CCCNC(=N)N)C(N)=O [IK00900, RRRRRRRRR-NH2]", 7.66),
    ("N=C(N)NCCC[C@H](NC(=O)[C@H](CCCNC(=N)N)NC(=O)[C@H](CCCNC(=N)N)NC(=O)[C@H](CCCNC(=N)N)NC(=O)[C@H](CCCNC(=N)N)NC(=O)[C@@H](N)CCCNC(=N)N)C(N)=O [IK00600, RRRRRR-NH2]", 6.34),
    ("N=C(N)NCCC[C@H](NC(=O)[C@H](CCCNC(=N)N)NC(=O)[C@H](CCCNC(=N)N)NC(=O)[C@H](CCCNC(=N)N)NC(=O)[C@H](CCCNC(=N)N)NC(=O)[C@H](CCCNC(=N)N)NC(=O)[C@H](CCCNC(=N)N)NC(=O)[C@H](CCCNC(=N)N)NC(=O)[C@H](CCCNC(=N)N)NC(=O)[C@@H](N)CCCNC(=N)N)C(N)=O [IK00100, RRRRRRRRRR-NH2]", 8.05),
]

Okay, next one:
-- ask Identify the measured pIC50 of N=C(N)NCCC[C@H](NC(=O)[C@H](CCCNC(=N)N)NC(=O)[C@H](CCCNC(=N)N)NC(=O)[C@H](CCCNC(=N)N)NC(=O)[C@H](CCCNC(=N)N)NC(=O)[C@H](CCCNC(=N)N)NC(=O)[C@H](CCCNC(=N)N)NC(=O)[C@@H](N)CCCNC(=N)N)C(N)=O [IK00800, RRRRRRRR-NH2] for PKG1β (h) (Homo sapiens).
-- reply 7.26

###

Target: PKG1α (h) (Homo sapiens)
Construct: purchased Eurofins Pharma Discovery Services UK Ltd (contract assay service)
Sequence (Q13976 1-671): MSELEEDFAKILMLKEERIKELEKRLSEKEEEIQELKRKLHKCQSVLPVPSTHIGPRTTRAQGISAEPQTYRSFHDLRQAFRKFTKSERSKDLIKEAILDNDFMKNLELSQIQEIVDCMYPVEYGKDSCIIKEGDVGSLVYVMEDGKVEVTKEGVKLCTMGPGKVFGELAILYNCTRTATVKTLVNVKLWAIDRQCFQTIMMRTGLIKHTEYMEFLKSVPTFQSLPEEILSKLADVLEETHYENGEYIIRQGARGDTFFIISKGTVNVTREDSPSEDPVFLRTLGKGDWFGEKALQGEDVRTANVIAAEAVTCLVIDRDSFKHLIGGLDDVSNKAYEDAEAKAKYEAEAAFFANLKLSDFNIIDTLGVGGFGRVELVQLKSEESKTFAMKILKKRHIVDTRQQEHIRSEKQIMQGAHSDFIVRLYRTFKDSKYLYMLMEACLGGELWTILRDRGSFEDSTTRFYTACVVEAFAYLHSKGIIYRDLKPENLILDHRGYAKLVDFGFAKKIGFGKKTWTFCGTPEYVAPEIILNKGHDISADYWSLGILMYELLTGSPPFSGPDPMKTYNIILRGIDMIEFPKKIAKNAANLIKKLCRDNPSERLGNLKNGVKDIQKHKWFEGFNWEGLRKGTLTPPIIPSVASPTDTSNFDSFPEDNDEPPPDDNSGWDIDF
Assay: PKG1α kinase activity assay, cell free
Format: biochemical
Conditions: cell free, 10 μM cGMP, 40 minutes at room temperature; read-out: PKG1α IC50
# maps each entry to its pIC50
pIC50 is a log-scale quantity: -log10 of the concentration expressed in molar.

Some compounds with recorded pIC50:
# compound, measured.endpoint, result.value
rows = [
    ("N=C(N)NCCC[C@H](NC(=O)[C@H](CCCNC(=N)N)NC(=O)[C@H](CCCNC(=N)N)NC(=O)[C@H](CCCNC(=N)N)NC(=O)[C@H](CCCNC(=N)N)NC(=O)[C@H](CCCNC(=N)N)NC(=O)[C@H](CCCNC(=N)N)NC(=O)[C@H](CCCNC(=N)N)NC(=O)[C@@H](N)CCCNC(=N)N)C(N)=O [IK00900, RRRRRRRRR-NH2]", "pIC50", 7.47),
    ("N=C(N)NCCC[C@H](NC(=O)[C@H](CCCNC(=N)N)NC(=O)[C@H](CCCNC(=N)N)NC(=O)[C@H](CCCNC(=N)N)NC(=O)[C@H](CCCNC(=N)N)NC(=O)[C@H](CCCNC(=N)N)NC(=O)[C@H](CCCNC(=N)N)NC(=O)[C@@H](N)CCCNC(=N)N)C(N)=O [IK00800, RRRRRRRR-NH2]", "pIC50", 7.12),
]

-- ask Identify the measured pIC50 of N=C(N)NCCC[C@H](NC(=O)[C@H](CCCNC(=N)N)NC(=O)[C@H](CCCNC(=N)N)NC(=O)[C@H](CCCNC(=N)N)NC(=O)[C@H](CCCNC(=N)N)NC(=O)[C@H](CCCNC(=N)N)NC(=O)[C@H](CCCNC(=N)N)NC(=O)[C@H](CCCNC(=N)N)NC(=O)[C@H](CCCNC(=N)N)NC(=O)[C@@H](N)CCCNC(=N)N)C(N)=O [IK00100, RRRRRRRRRR-NH2] for PKG1α (h) (Homo sapiens).
-- reply 7.80

###

Target: PKG1β (h) (Homo sapiens, UniProt Q13976)
Construct: purchased Eurofins Pharma Discovery Services UK Ltd (contract assay service)
Experiment: PKG1β kinase activity assay, cell free
Assay type: biochemical
Experimental: The capacity of test peptides to inhibit the activity of the kinases PKG1α, PKG1β, and Src family kinases in a cell free assay was assessed. The test peptides were amidated at their C-terminal end (indicated by “—NH2”) unless otherwise noted. Kinase activity assays were conducted by Eurofins Pharma Discovery Services UK Ltd (Dundee Technology Park, Dundee, United Kingdom) and Reaction Biology Corp. (Malvern, Pa., USA). All test peptides are prepared to 50× final assay concentration in 100% DMSO. […]
# maps each entry to its pIC50
pIC50 is a log-scale quantity: -log10 of the concentration expressed in molar.

Some compounds with recorded pIC50:
# compound, measured.endpoint, result.value
rows = [
    ("N=C(N)NCCC[C@H](NC(=O)[C@H](CCCNC(=N)N)NC(=O)[C@H](CCCNC(=N)N)NC(=O)[C@H](CCCNC(=N)N)NC(=O)[C@H](CCCNC(=N)N)NC(=O)[C@H](CCCNC(=N)N)NC(=O)[C@H](CCCNC(=N)N)NC(=O)[C@H](CCCNC(=N)N)NC(=O)[C@H](CCCNC(=N)N)NC(=O)[C@H](CCCNC(=N)N)NC(=O)[C@H](CCCNC(=N)N)NC(=O)[C@H](CCCNC(=N)N)NC(=O)[C@H](CCCNC(=N)N)NC(=O)[C@@H](N)CCCNC(=N)N)C(=O)O [IK0140H, RRRRRRRRRRRRRR]", "pIC50", 8.15),
    ("N=C(N)NCCC[C@H](NC(=O)[C@H](CCCNC(=N)N)NC(=O)[C@H](CCCNC(=N)N)NC(=O)[C@H](CCCNC(=N)N)NC(=O)[C@H](CCCNC(=N)N)NC(=O)[C@H](CCCNC(=N)N)NC(=O)[C@H](CCCNC(=N)N)NC(=O)[C@H](CCCNC(=N)N)NC(=O)[C@H](CCCNC(=N)N)NC(=O)[C@H](CCCNC(=N)N)NC(=O)[C@H](CCCNC(=N)N)NC(=O)[C@@H](N)CCCNC(=N)N)C(N)=O", "pIC50", 8.15),
    ("N=C(N)NCCC[C@@H](N)C(=O)N[C@H](CCCNC(=N)N)C(=O)N[C@H](CCCNC(=N)N)C(=O)N[C@H](CCCNC(=N)N)C(=O)N[C@H](CCCNC(=N)N)C(=O)N[C@H](CCCNC(=N)N)C(=O)N[C@H](CCCNC(=N)N)C(=O)N[C@H](CCCNC(=N)N)C(=O)N[C@H](CCCNC(=N)N)C(=O)N[C@H](CCCNC(=N)N)C(=O)N[C@H](CCCNC(=N)N)C(=O)N[C@H](CCCNC(=N)N)C(=O)N[C@H](CCCNC(=N)N)C(=O)N[C@H](CCCNC(=N)N)C(N)=O", "pIC50", 8.00),
]

Okay, next one:
-- ask Reported pIC50 for `N=C(N)NCCC[C@H](NC(=O)[C@H](CCCNC(=N)N)NC(=O)[C@H](CCCNC(=N)N)NC(=O)[C@H](CCCNC(=N)N)NC(=O)[C@H](CCCNC(=N)N)NC(=O)[C@H](CCCNC(=N)N)NC(=O)[C@H](CCCNC(=N)N)NC(=O)[C@H](CCCNC(=N)N)NC(=O)[C@H](CCCNC(=N)N)NC(=O)[C@H](CCCNC(=N)N)NC(=O)[C@H](CCCNC(=N)N)NC(=O)[C@H](CCCNC(=N)N)NC(=O)[C@H](CCCNC(=N)N)NC(=O)[C@@H](N)CCCNC(=N)N)C(N)=O` : what is it?
-- reply 8.28
